# Test system: Klebsiella pneumoniae strain CRE-723
# measurementProtocol: MIC in cation-adjusted Muller-Hinton broth
# Format: cell-based
# runConditions: CRE723, read-out: MIC K. pneumoniae strain CRE-723
readoutName: MIC (µg/mL)
Reply numerically in µg/mL, unit not repeated.

These recorded examples may help you get a feel for the data.
| compound | MIC (µg/mL) |
| --- | --- |
| Cc1ccc2[n+](c1)[TeH](Cl)(Cl)(Cl)[n+]1cc(C)ccc1-2 | 16 |
| Cl[TeH]1(Cl)(Cl)[n+]2ccccc2SSc2cccc[n+]21 [compound (e)] | 32 |

Quick one: MIC for Cl[TeH]1(Cl)(Cl)[n+]2ccccc2-c2cccc[n+]21 ?
16

Quick one: MIC for Cl[Te]1(Cl)Nc2ccccc2N1 ?
2

Quick one: MIC for Cc1cc[n+]2c(c1)-c1cc(C)cc[n+]1[TeH]2(Cl)(Cl)Cl ?
16

Quick one: MIC for Cl[TeH]1(Cl)(Cl)[n+]2cccc3ccc4ccc[n+]1c4c32 ?
4

Measured values drawn from patent US20250059144A1 for this set.
